procedure text: in vitro
cond: human, hela cells, % viability
Measured viability at 28.5 h, 10 µM, listed per entry.
Kindly answer with a numeric value in %, unit omitted.

{"compound": "Clc1ccccc1-c1nccnc1NCCc1c[nH]c2ccccc12", "numeric result": 106}
{"compound": "COc1ccc(OC(=O)C2COc3ccccc3O2)cc1 (centres unmarked)", "numeric result": 100}
{"compound": "COCCSc1nnc(NS(=O)(=O)Cc2ccccc2)s1", "numeric result": 97.6}

Moving on to the next compound.
**Q:** Entry Oc1ccc(Nc2nc3nonc3nc2Nc2ccccc2)cc1 has what viability at 28.5 h, 10 µM?
**A:** 94

----------
procedure text: in vitro
cond: human, hela cells, % viability
property label: viability at 28.5 h, 10 µM (%)
Kindly answer with a numeric value in %, unit omitted.

Solved cases (2 shown):
{"compound": "Cc1ncoc1C(=O)N1CCC2(C/C=C/C[C@H]3COCC[C@H]3NC(=O)CNC2=O)CC1", "reading unit": "%", "viability at 28.5 h, 10 µM": 89.3}
{"compound": "CC(=O)N1CCN(c2ccc(Oc3ncc(C(F)(F)F)cc3Cl)cc2)CC1", "reading unit": "%", "viability at 28.5 h, 10 µM": 104}

**Q:** Entry Cc1cccc(CC(=O)N2CCC(Cc3cccc(-c4cccs4)c3)(C(N)=O)CC2)c1 has what viability at 28.5 h, 10 µM?
**A:** 107

**Q:** Continue with CS(=O)(=O)N[C@H]1CO[C@H]2[C@@H]1OC[C@@H]2Nc1nccc(-c2ccco2)n1
**A:** 96.4

**Q:** Continue with COc1ncccc1C(=O)Nc1c(C)noc1C
**A:** 103

**Q:** Continue with CC(C(=O)O)N(c1ccc(Cl)cc1)S(C)(=O)=O (centres unmarked)
**A:** 111

**Q:** Continue with O=C(O)Cc1cnnn1-c1ccc(Cl)cc1Cl
**A:** 86

**Q:** Continue with COc1ccc([C@H]2CN(C(C)=O)[C@@H]3CCN(CC4CC4)C[C@H]23)cc1
**A:** 98.1

----------
Measured viability at 28.5 h, 10 µM, listed per entry.
procedure text: in vitro
cond: human, hela cells, % viability
Kindly answer with a numeric value in %, unit omitted.

Solved cases (5 shown):
{"compound": "CCn1c(COc2ccccc2)nnc1Sc1ccc([N+](=O)[O-])cc1C=O", "viability at 28.5 h, 10 µM [%]": 105}
{"compound": "CC1CC1C(=O)NCCN1CCC(O)(c2ccc(F)cc2)CC1 (stereo not shown)", "viability at 28.5 h, 10 µM [%]": 96.7}
{"compound": "Cc1cc(C)n(CC2CN(C(C)C(=O)NCc3ccco3)CCO2)n1 (stereo not shown)", "viability at 28.5 h, 10 µM [%]": 101}
{"compound": "COCCOc1ccc(C(=O)N[C@@H]2CNCCC[C@H]2O)cc1", "viability at 28.5 h, 10 µM [%]": 94.6}
{"compound": "COc1ccc(-c2cc(C(=O)N3CCN(C(C)=O)CC3)cnc2-c2ccccc2)cn1", "viability at 28.5 h, 10 µM [%]": 101}

**Q:** Entry c1cn2cc(-c3ccoc3)nc(NC3CC3)c2n1 has what viability at 28.5 h, 10 µM?
**A:** 102

**Q:** Continue with Cc1ccc2cc3c(nc2c1)OCC(=O)N(Cc1ccco1)C3
**A:** 92.9

----------
procedure text: in vitro
cond: human, hela cells, % viability
Measured viability at 28.5 h, 10 µM, listed per entry.
Kindly answer with a numeric value in %, unit omitted.

Solved cases (3 shown):
{"compound": "Cc1cc(NC(=O)CCN2CCC(N3CCNC3=O)CC2)no1 [CBK304909]", "reading unit": "%", "numeric result": 89.9}
{"compound": "COc1cccc(C(=O)NNC(=O)Nc2ccccc2)c1 [CBK261608]", "reading unit": "%", "numeric result": 91.8}
{"compound": "CN(C)CCN(C)C(=O)c1cc2cc(OC(F)(F)F)ccc2[nH]1 [CBK107316]", "reading unit": "%", "numeric result": 91.5}

Moving on to the next compound.
**Q:** Entry COc1ccc(N(CC(=O)Nc2cccnc2)S(=O)(=O)c2ccccc2)cc1 [CBK262236] has what viability at 28.5 h, 10 µM?
**A:** 91.6

----------
procedure text: in vitro
cond: human, hela cells, % viability
Measured viability at 28.5 h, 10 µM, listed per entry.
Kindly answer with a numeric value in %, unit omitted.

{"molecule": "COc1cccc(CNC(=O)Cn2nnc(-c3ccc(CN4CCC(C)CC4)cc3)n2)c1OC [CBK144161C]", "viability at 28.5 h, 10 µM [%]": 94.1}
{"molecule": "CCc1nn(CC(=O)NC2CC2)c(=O)c2cc3sccc3n12 [CBK284029]", "viability at 28.5 h, 10 µM [%]": 88.7}

**Q:** Entry COc1cc2c(cc1OC)C1c3ccccc3N(Cn3nnc4ccccc43)C(=O)N1CC2 (stereo not shown) [CBK286193] has what viability at 28.5 h, 10 µM?
**A:** 84.2

**Q:** Continue with COc1ccc(C)cc1-n1ccc(C(=O)N2CCSCC2)n1 [CBK305972]
**A:** 96.5

**Q:** Continue with CC(C)(C)OC(=O)N1CCCC(c2nc3ccccc3cc2N)C1 (stereo not shown) [CBK284711]
**A:** 96.7

**Q:** Continue with COc1ccc([C@@]23CCC(NC(=O)Nc4ccc(OCc5ccccc5)cc4)C[C@@H]2N(C)CC3)cc1OC (stereo partly shown) [CBK047551T]
**A:** 105

**Q:** Continue with COc1ccc(CN2CCCN(C(=O)c3ccc(C#N)cc3)CC2)cc1 [CBK305273]
**A:** 91.4

**Q:** Continue with CC(C)=NNC(=O)CSc1nc(N2CCOCC2)c2ccccc2n1 [CBK009114]
**A:** 85.2

**Q:** Continue with Cc1cccc(=O)n1CCCn1cc(C2CCOC2)nn1 (stereo not shown) [CBK307368]
**A:** 100

----------
procedure text: in vitro
cond: human, hela cells, % viability
property label: viability at 28.5 h, 10 µM (%)
Kindly answer with a numeric value in %, unit omitted.

{"structure notation": "c1ccc(CN2C[C@H]3CCc4c[nH]nc4[C@H]3C2)nc1", "numeric result": 87}
{"structure notation": "Cc1[nH]c(=O)c(C#N)c(C)c1CCC(=O)NCc1cn2ccccc2n1", "numeric result": 93}
{"structure notation": "COc1ncc(-c2nccnc2OCCn2cnc3c2c(=O)n(C)c(=O)n3C)c(OC)n1", "numeric result": 87.3}

**Q:** Entry CNC(=O)C1(Cc2ccccc2-c2ccccc2)CCN(C(=O)Cc2ccccc2)CC1 has what viability at 28.5 h, 10 µM?
**A:** 93.3

----------
procedure text: in vitro
cond: human, hela cells, % viability
Measured viability at 28.5 h, 10 µM, listed per entry.
Kindly answer with a numeric value in %, unit omitted.

Solved cases (3 shown):
{"compound": "O=C(c1ccc(-c2cncc(-c3ccc(Cl)s3)n2)cc1)N1CCOCC1 [CBK138517]", "viability at 28.5 h, 10 µM / %": 92.2}
{"compound": "O=C(/C=C/c1cccnc1)Nc1c(F)cc(F)cc1OC1CCNCC1 [CBK050324T]", "viability at 28.5 h, 10 µM / %": 90.5}
{"compound": "O=C(O)CSc1ccc(Oc2ccc(SCC(=O)O)cc2)cc1 [CBK261254]", "viability at 28.5 h, 10 µM / %": 92.6}

**Q:** Entry CCc1nnsc1C(=O)N1CCc2[nH]c3c(C)cccc3c2C1 [CBK281655] has what viability at 28.5 h, 10 µM?
**A:** 86.2

**Q:** Continue with CCN(CC)S(=O)(=O)c1ccc(C(=O)NCc2ccc(OC)cc2)cc1 [CBK305844]
**A:** 71.6

**Q:** Continue with O=C(c1ccc(-n2ccnc2)c(-n2cccc2)c1)N1CCSCC1 [CBK285364]
**A:** 97.4

**Q:** Continue with O=C(Nc1ccc(S(=O)(=O)N2CCCC2)cc1)C1CC(=O)N(Cc2ccco2)C1 (stereo not shown) [CBK297500]
**A:** 92.5

**Q:** Continue with CCOc1cc(Br)ccc1S(=O)(=O)NCc1ccc2c(c1)OCO2 [CBK268813]
**A:** 108

**Q:** Continue with COCCNc1nccnc1-c1cccc(C(=O)N2CCN(C)CC2)c1 [CBK036864]
**A:** 99.9

**Q:** Continue with Cc1ccc2ccccc2c1Cn1cc(-c2ccc([N+](=O)[O-])cc2)nc1SCC(=O)NC(C)(C)C [CBK264493]
**A:** 115

----------
procedure text: in vitro
cond: human, hela cells, % viability
Measured viability at 28.5 h, 10 µM, listed per entry.
Answer with the number, then the unit.

Solved cases (10 shown):
{"compound": "COc1ccc(-c2nnc3c4ccccc4c(C)nn23)cc1S(=O)(=O)NC(C)c1ccccc1 (stereo not drawn)", "result": "104%"}
{"compound": "Oc1nc(O)c2c3c(n(CCn4ccnc4)c2n1)CCCC3 [CBK024380B]", "result": "109%"}
{"compound": "Cc1ccccc1CNC(=O)CCSc1ccc(Cl)cc1", "result": "102%"}
{"compound": "CCOc1ccc(C(=O)N2CC(C(N)=O)CCC2C)cn1 (stereo not drawn)", "result": "102%"}
{"compound": "O=C(c1c(F)cccc1F)N1CCCC2(CCN(Cc3ccccc3)C2)C1 (stereo not drawn)", "result": "108%"}
{"compound": "COc1cc(OC)c(NC(=O)C(C)Oc2ccc(Cl)c(C)c2)cc1Cl (stereo not drawn)", "result": "89.7%"}
{"compound": "COc1cc(NC(=O)CC2NC3CCCCC3NC2=O)cc(OC)c1OC (stereo not drawn)", "result": "84.5%"}
{"compound": "COc1ccc2oc(-c3ccccc3)c(C(=O)Nc3nccs3)c2c1", "result": "71.8%"}
{"compound": "CCCC(=O)Nc1ccc(N2CCNCC2)c2ccccc12 [CBK024619T]", "result": "88.4%"}
{"compound": "CN(C)S(=O)(=O)c1ccc2[nH]cc(CCN)c2c1 [CBK268522C]", "result": "99.7%"}

**Q:** Entry Cc1cccc(Nc2ncc(Cc3ccccc3C)s2)n1 has what viability at 28.5 h, 10 µM?
**A:** 94.8%

**Q:** Continue with CCN(CC)c1c(C)nc2ccc(C(=O)NC3CCN(C)CC3)cn12
**A:** 98.7%

**Q:** Continue with CCN(CC)C(=O)C1CCCN(C(=O)NCc2cnc(C)cn2)C1 (stereo not drawn)
**A:** 101%

**Q:** Continue with CNC(=O)c1ccc(-c2cccc(OC(F)(F)F)c2)nc1NCCOC
**A:** 96.4%

**Q:** Continue with COC1C(O)C(CO)OC1n1cc(C)c(=O)[nH]c1=O (stereo not drawn)
**A:** 103%
